experiment: NCI Yeast Anticancer Drug Screen. Data for the mec2-1 strain (AID 157); details: S. cerevisiae mec2-1 strain, at 50.0 µM, hits give high values
This is part of a sample that, as a whole, favours compounds with a hit. Of some 79,000 tested, about 15% had one in any assay.

- molecule: "CCOC1=CC(=O)C(=O)c2ccccc21"
  unit_tag: "%"
  growth inhibition: -10.2
- molecule: "O=C(O)c1ccccc1CC(Cc1ccc2c(c1)CCC2)C(=O)O (stereo not drawn)"
  unit_tag: "%"
  growth inhibition: -2.25
- molecule: "O=C(c1ccccc1CO)N1CCCCC1"
  unit_tag: "%"
  growth inhibition: 2.2
- molecule: "CC(=O)OC(c1ccc2c(c1)OCO2)C(C)(C)C (stereo not drawn)"
  unit_tag: "%"
  growth inhibition: 14.9
- molecule: "CC1CC(NN(C)C)C2(C(N)=O)C(N)=NC(=O)C12C#N (stereo not drawn)"
  unit_tag: "%"
  growth inhibition: 9.15
- molecule: "CN(c1ccccc1)c1nc(Cl)c(Cl)c(Cl)n1"
  unit_tag: "%"
  growth inhibition: -11.5
- molecule: "CCC(C#N)(c1ccccc1)N(CCc1ccccc1)C(=O)c1ccccc1 (stereo not drawn)"
  unit_tag: "%"
  growth inhibition: -0.5
- molecule: "CC(=O)O[C@@H]1[C@H]2[C@@H](OC(=O)c3ccccc3)[C@@H](C)C[C@]2(O)[C@H](OC(C)=O)[C@@]2(C)[C@@H]3C[C@@](C)(OC(C)=O)C[C@@H](OC(C)=O)[C@@]3(OC(C)=O)C[C@@]12C"
  unit_tag: "%"
  growth inhibition: -7.05
- molecule: "O=[N+]([O-])c1cccc(S(=O)(=O)O)c1 (tested in a mixture with another compound)"
  unit_tag: "%"
  growth inhibition: -3.65
- molecule: "CCOC(=O)CC(C(C)=O)C(=O)OCC (stereo not drawn)"
  unit_tag: "%"
  growth inhibition: 12.3
- molecule: "CC(C)(Oc1ccc2c(=O)cc(-c3ccccc3)oc2c1)C(=O)Nc1c(Cl)cccc1Cl"
  unit_tag: "%"
  growth inhibition: -18.8
- molecule: "C#CCNC(=O)NCCCC(NC(C)=O)C(=O)NCc1ccccc1 (stereo not drawn)"
  unit_tag: "%"
  growth inhibition: -12.2
- molecule: "CC(=O)Oc1ccc(C2c3cc(OC(C)=O)c(OC(C)=O)cc3CC3C(=O)OCC32)cc1OC(C)=O (stereo not drawn)"
  unit_tag: "%"
  growth inhibition: -4.85
- molecule: "N#CC(NCc1ccccc1)C(O)c1ccccc1 (stereo not drawn)"
  unit_tag: "%"
  growth inhibition: 11
- molecule: "c1ccc2c3c(ccc2c1)CCCC3"
  unit_tag: "%"
  growth inhibition: -2.15
- molecule: "Cc1ccc2ccccc2c1C(=O)c1ccccc1Cc1cccc2ccccc12"
  unit_tag: "%"
  growth inhibition: 2.65
- molecule: "CC1=NN2C(=O)C(c3ccccc3)SC2=NC(C)(C)C1 (stereo not drawn)"
  unit_tag: "%"
  growth inhibition: -18.9
- molecule: "C1CCC(CN2CCN(CC3CCCCO3)CC2)OC1 (stereo not drawn)"
  unit_tag: "%"
  growth inhibition: -11.5
- molecule: "CO/[N+]([O-])=C\\C(=O)N/C=C/C(=O)O"
  unit_tag: "%"
  growth inhibition: 5.85
- molecule: "Nc1ccc(N)c(N)c1"
  unit_tag: "%"
  growth inhibition: 53.1
- molecule: "COc1ccc2oc(=O)[nH]c2c1"
  unit_tag: "%"
  growth inhibition: -3.95
- molecule: "CCN(CC)c1ncnc2c1cnn2C"
  unit_tag: "%"
  growth inhibition: -14.4
- molecule: "CC(=N\\NS(=O)(=O)c1ccc(C)cc1)/C(C)=N/NS(=O)(=O)c1ccc(C)cc1"
  unit_tag: "%"
  growth inhibition: -1.9
